- tgt: human DGKζ (Homo sapiens, UniProt Q13574)
- Construct: made in house; host or cells: Sf9 insect cells, baculovirus
- Sequence (Q13574 with tags, fused parts or gaps): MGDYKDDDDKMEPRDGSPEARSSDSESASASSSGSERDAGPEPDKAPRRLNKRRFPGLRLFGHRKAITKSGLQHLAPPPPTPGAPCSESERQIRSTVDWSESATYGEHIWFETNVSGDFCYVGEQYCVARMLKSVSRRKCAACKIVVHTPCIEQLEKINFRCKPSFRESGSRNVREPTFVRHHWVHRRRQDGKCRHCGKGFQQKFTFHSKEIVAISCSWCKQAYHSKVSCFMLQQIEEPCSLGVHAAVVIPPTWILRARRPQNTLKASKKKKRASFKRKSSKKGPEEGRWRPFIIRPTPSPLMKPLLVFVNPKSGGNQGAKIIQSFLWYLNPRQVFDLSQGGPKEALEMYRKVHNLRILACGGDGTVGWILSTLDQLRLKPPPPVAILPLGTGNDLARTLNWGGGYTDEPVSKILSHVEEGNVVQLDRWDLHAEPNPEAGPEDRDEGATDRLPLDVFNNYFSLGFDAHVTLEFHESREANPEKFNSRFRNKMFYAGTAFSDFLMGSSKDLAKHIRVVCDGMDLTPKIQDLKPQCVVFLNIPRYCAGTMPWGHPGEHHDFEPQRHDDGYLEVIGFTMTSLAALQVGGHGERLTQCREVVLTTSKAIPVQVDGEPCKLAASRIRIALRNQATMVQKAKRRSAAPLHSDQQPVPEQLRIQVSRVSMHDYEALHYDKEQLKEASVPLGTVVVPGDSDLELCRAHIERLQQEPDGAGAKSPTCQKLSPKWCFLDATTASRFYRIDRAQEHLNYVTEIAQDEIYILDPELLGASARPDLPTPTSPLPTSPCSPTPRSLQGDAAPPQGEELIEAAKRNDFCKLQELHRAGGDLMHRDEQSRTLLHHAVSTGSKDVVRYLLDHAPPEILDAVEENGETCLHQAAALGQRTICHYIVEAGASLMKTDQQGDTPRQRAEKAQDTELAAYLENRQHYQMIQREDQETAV
- test: Human DGKζ kinase activity inhibition assay (ADP-Glo)
- Assay type: biochemical
- conditionNotes: example compounds; recombinant full-length human DGKζ, 1,2-dioleoyl-sn-glycerol 7 μM, ATP 55 μM, 20 min at 22° C.; read-out: IC50 values of examples in in vitro human DGKζ kinase activity inhibition assays
Recorded IC50 for the following compounds

[
  {
    "compound": "CC(C(N)=O)N(c1ccc(F)cc1)c1nc(N)c(C(=O)c2cc(C(=O)NC3CC(F)(F)C3)no2)s1 (single isomer, unassigned) [Example 32.2]",
    "tgt": "human DGKζ (Homo sapiens, UniProt Q13574)",
    "IC50 (nM)": 897
  },
  {
    "compound": "CC(C(N)=O)N(c1ccc(F)c(F)c1)c1nc(N)c(C(=O)c2cc(C(=O)NC3CC(F)(F)C3)no2)s1 (single isomer, unassigned) [Example 45.2]",
    "tgt": "human DGKζ (Homo sapiens, UniProt Q13574)",
    "IC50 (nM)": 1270
  },
  {
    "compound": "CC(C(N)=O)N(c1ccc(F)cc1)c1nc(N)c(C(=O)c2cc(C(=O)NCC#N)no2)s1 (racemic)",
    "tgt": "human DGKζ (Homo sapiens, UniProt Q13574)",
    "IC50 (nM)": 566
  }
]

src = patent US20230167103A1
